Entries and their CC50 at 72 h
# Assay name: Cytotoxicity against human Huh7.5 cells assessed as reduction in cell viability incubated for 72 hrs by MTT assay
# Format: cell-based
The figure you give is taken to be in µM; do not add the unit.

Past entries and their recorded results:
{"columns": ["Molecular string", "Recorded metric", "Val"],
 "data": [
  ["COc1cc(/C=C/c2ccccc2)c(C(=O)O)c(O)c1CC=C(C)C", "CC50 at 72 h", 91],
  ["COC(=O)c1c(/C=C(\\C)c2ccccc2)cc(OC)c(CC=C(C)C)c1O", "CC50 at 72 h", 102]
]}

Kindly consider the entry below.
Q) Given COc1cc(/C=C/c2ccccc2Cl)c(C(=O)O)c(O)c1CC=C(C)C , state its recorded CC50 at 72 h.
A) 39.5

---

# Tested on: Hepatitis C virus
# Assay name: Antiviral activity against HCV J6/JFH/JC1 harboring S282T mutant infected in human Huh7.5 cells assessed as inhibition of viral replication measured after 72 hrs by qRT-PCR analysis
# Assay type: functional, organism-based, Hepacivirus hominis
# Cond: J6/JFH/JC1, Huh7.5, 72 h
Entries and their EC50
Remember to quote the unit after the number.

{"columns": ["Molecule", "EC50"],
 "data": [
  ["COc1cc(/C=C/c2ccccc2)c(C(=O)O)c(O)c1CC=C(C)C", "8.59 µM"]
]}

Kindly consider the entry below.
Q) Given CC(C)OC(=O)[C@H](C)N[P@](=O)(OC[C@H]1O[C@@H](n2ccc(=O)[nH]c2=O)[C@](C)(F)[C@@H]1O)Oc1ccccc1 [SOFOSBUVIR] , state its recorded EC50.
A) 0.29 µM

---

# Assay name: Cytotoxicity against human Huh7.5 cells assessed as reduction in cell viability incubated for 72 hrs by MTT assay
# Type: cell-based
Entries and their CC50 at 72 h

Past entries and their recorded results:
{"columns": ["Molecular string", "CC50 at 72 h"],
 "data": [
  ["COc1cc(/C=C/C=C/c2ccccc2)c(C(=O)O)c(O)c1CC=C(C)C", "96.9 µM"],
  ["CC/C=C/c1cc(OC)c(CC=C(C)C)c(O)c1C(=O)O", "72.9 µM"],
  ["COc1cc(/C=C/c2cccc(C)c2)c(C(=O)O)c(O)c1CC=C(C)C", "82.5 µM"],
  ["COc1cc(CCc2ccccc2)c(C(=O)O)c(O)c1CC=C(C)C", "59.4 µM"],
  ["COc1cc(/C=C(\\C)c2ccccc2)c(C(=O)O)c(O)c1CC=C(C)C", "76.8 µM"],
  ["COc1cc(/C=C/c2ccc(O)cc2)c(C(=O)O)c(O)c1CC=C(C)C", "16.1 µM"],
  ["COc1cc(/C=C/c2cccs2)c(C(=O)O)c(O)c1CC=C(C)C", "83 µM"],
  ["COc1cc(/C=C/c2ccccc2C)c(C(=O)O)c(O)c1CC=C(C)C", "55.3 µM"],
  ["CCOC(=O)c1c(/C=C/c2ccccc2)cc(OC)c(CC=C(C)C)c1O", "195 µM"]
]}

Q) Given COC(=O)c1c(CCc2ccccc2)cc(OC)c(CC=C(C)C)c1O , state its recorded CC50 at 72 h.
A) 122 µM

---

# Assay name: Selectivity index, ratio of CC50 for cytotoxicity against human Huh7.5 cells assessed as reduction in cell viability incubated for 72 hrs by MTT assay to EC50 for antiviral activity against HCV genotype 2a J6/JFH/JC1 infected in human Huh7.5 cells assessed as reduction in viral RNA levels measured after 72 hrs by qRT-PCR analysis
# Format: toxicity, cell-based
# Cond: read-out: Ratio CC50/EC50
Recorded metric: selectivity ratio at 72 h
// return just the number, without any unit appended

{"columns": ["Molecule", "Val"],
 "data": [
  ["COc1cc(/C=C/c2ccc(C)cc2)c(C(=O)O)c(O)c1CC=C(C)C", 13],
  ["CC/C=C/c1cc(OC)c(CC=C(C)C)c(O)c1C(=O)OC", 4],
  ["CCOC(=O)c1c(/C=C/c2ccccc2)cc(OC)c(CC=C(C)C)c1O", 47]
]}

Q) Given COc1cc(/C=C/c2ccccc2)c(C(=O)O)c(O)c1CC=C(C)C , state its recorded selectivity ratio at 72 h.
A) 40

Q) Given COc1cc(/C=C/c2ccc(F)cc2)c(C(=O)O)c(O)c1CC=C(C)C , state its recorded selectivity ratio at 72 h.
A) 46

Q) Given COc1cc(/C=C/C=C/c2ccccc2)c(C(=O)O)c(O)c1CC=C(C)C , state its recorded selectivity ratio at 72 h.
A) 7

Q) Given COC(=O)c1c(CCc2ccccc2)cc(OC)c(CC=C(C)C)c1O , state its recorded selectivity ratio at 72 h.
A) 8

Q) Given COc1cc(/C=C/c2cccs2)c(C(=O)O)c(O)c1CC=C(C)C , state its recorded selectivity ratio at 72 h.
A) 22

Q) Given COC(=O)c1c(/C=C(\C)c2ccccc2)cc(OC)c(CC=C(C)C)c1O , state its recorded selectivity ratio at 72 h.
A) 35

Q) Given COc1cc(/C=C(\C)c2ccccc2)c(C(=O)O)c(O)c1CC=C(C)C , state its recorded selectivity ratio at 72 h.
A) 45

Q) Given COc1cc(CCc2ccccc2)c(C(=O)O)c(O)c1CC=C(C)C [AMORFRUTIN A] , state its recorded selectivity ratio at 72 h.
A) 35

---

Entries and their CC50 at 72 h
# Assay name: Cytotoxicity against human Huh7.5 cells assessed as reduction in cell viability incubated for 72 hrs by MTT assay
# Assay type: cell-based
The figure you give is taken to be in µM; do not add the unit.

{"columns": ["Molecular string", "CC50 at 72 h / µM"],
 "data": [
  ["COc1cc(/C=C/c2ccc(F)cc2)c(C(=O)O)c(O)c1CC=C(C)C", 69.2]
]}

Kindly consider the entry below.
Q) Given COc1cc(/C=C/c2ccccc2)cc(O)c1CC=C(C)C , state its recorded CC50 at 72 h.
A) 21.4

---

# Assay name: Selectivity index, ratio of CC50 for cytotoxicity against human Huh7.5 cells assessed as reduction in cell viability incubated for 72 hrs by MTT assay to EC50 for antiviral activity against HCV genotype 2a J6/JFH/JC1 infected in human Huh7.5 cells assessed as reduction in viral RNA levels measured after 72 hrs by qRT-PCR analysis
# Type: toxicity, cell-based
# Cond: read-out: Ratio CC50/EC50
Recorded metric: selectivity ratio at 72 h
// return just the number, without any unit appended

Past entries and their recorded results:
{"columns": ["Molecular string", "selectivity ratio at 72 h"],
 "data": [
  ["CCC[C@H](NC(=O)[C@@H]1[C@H]2CCC[C@H]2CN1C(=O)[C@@H](NC(=O)[C@@H](NC(=O)c1cnccn1)C1CCCCC1)C(C)(C)C)C(=O)C(=O)NC1CC1", 5700],
  ["COc1cc(/C=C/c2ccccc2C)c(C(=O)O)c(O)c1CC=C(C)C", 9],
  ["COc1cc(/C=C/c2ccccc2)cc(O)c1CC=C(C)C", 1.8],
  ["CC/C=C/c1cc(OC)c(CC=C(C)C)c(O)c1C(=O)O", 71],
  ["COc1cc(/C=C/c2ccc(O)cc2)c(C(=O)O)c(O)c1CC=C(C)C", 49]
]}

Q) Given COc1cc(/C=C/c2ccccc2Cl)c(C(=O)O)c(O)c1CC=C(C)C , state its recorded selectivity ratio at 72 h.
A) 39

Q) Given COc1cc(/C=C/c2cccc(C)c2)c(C(=O)O)c(O)c1CC=C(C)C , state its recorded selectivity ratio at 72 h.
A) 42

---

# Assay name: Cytotoxicity against human Huh7.5 cells assessed as reduction in cell viability incubated for 72 hrs by MTT assay
# Type: cell-based
Recorded metric: CC50 at 72 h (µM)
The figure you give is taken to be in µM; do not add the unit.

Past entries and their recorded results:
{"columns": ["Molecular string", "Val"],
 "data": [
  ["COc1cc(/C=C/c2ccc(C)cc2)c(C(=O)O)c(O)c1CC=C(C)C", 82.9],
  ["CC/C=C/c1cc(OC)c(CC=C(C)C)c(O)c1C(=O)OC", 89.3]
]}

Q) Given CCC[C@H](NC(=O)[C@@H]1[C@H]2CCC[C@H]2CN1C(=O)[C@@H](NC(=O)[C@@H](NC(=O)c1cnccn1)C1CCCCC1)C(C)(C)C)C(=O)C(=O)NC1CC1 , state its recorded CC50 at 72 h.
A) 44.9
